# Test system: HEK-293T
# procedureDetails: Multiplex assay against HEK293T
# Assay type: toxicity, cell-based
# experimentalContext: human, 24 h, 10 µM, compound concentration 10 uM, replicate 1
Returns true if the recorded Total Cell Count is greater than or equal to 300, and false otherwise.

# example entries with known answers
Decide: is the reported value of Total Cell Count for C=CC(=O)Nc1ccc2[nH]c(=O)n(C3CCN(Cc4ccc(-c5nc6cc[nH]c(=O)c6cc5-c5ccccc5)cc4)CC3)c2c1 [Borussertib] equal to or greater than 300?
true

Decide: is the reported value of Total Cell Count for Cc1cccc(CN2CCN(C(c3ccccc3)c3ccc(Cl)cc3)CC2)c1.Cl.Cl (stereo not drawn) equal to or greater than 300?
false

Decide: is the reported value of Total Cell Count for Cc1ccccc1C(c1ccccc1C)N1C2CCC1CC(O)(c1ccccc1)C2 (stereo not drawn) equal to or greater than 300?
true

Decide: is the reported value of Total Cell Count for CNC(=O)Nc1ccc(-c2nc(N3CC4CCC(C3)O4)c3cnn(C4CCC5(CC4)OCCO5)c3n2)cc1 equal to or greater than 300?
false

Decide: is the reported value of Total Cell Count for CC(C)CC(=O)Nc1[nH]nc2c1CN(C(=O)C1CCN(C)CC1)C2(C)C [PHA-793887] equal to or greater than 300?
true

Decide: is the reported value of Total Cell Count for CN1CCN(Cc2ccc(Nc3ncc(Cl)c(Nc4ccccc4S(=O)(=O)N(C)C)n3)cc2)CC1 [DUBERMATINIB] equal to or greater than 300?
false

Now for another entry.
Decide: is the reported value of Total Cell Count for O=c1cc(N2CCOCC2)oc2c(-c3cccc4c3sc3ccccc34)cccc12 equal to or greater than 300?
false

###

# Tested on: Fibroblast
# procedureDetails: Multiplex assay against human fibroblast
# Format: toxicity, cell-based
# experimentalContext: 48 h, 10 µM, compound concentration 10 uM, replicate 1
Label 1 when Population Fragmented Nuclei (%) is strictly below 40%; otherwise label -1.

# example entries with known answers
Find out if reported Population Fragmented Nuclei (%) for Cc1ccccc1C(c1ccccc1C)N1C2CCC1CC(O)(c1ccccc1)C2 (configuration not stated) is less than 40%
1

Find out if reported Population Fragmented Nuclei (%) for COc1ccc(-c2ccc3ncc4c(c3c2)n(-c2ccc(N3CCNCC3)c(C(F)(F)F)c2)c(=O)n4C)cn1.O=C(O)/C=C\C(=O)O is less than 40%
-1

Find out if reported Population Fragmented Nuclei (%) for CCCSc1nc(N[C@@H]2C[C@H]2c2ccc(F)c(F)c2)c2nnn([C@@H]3C[C@H](OCCO)[C@@H](O)[C@H]3O)c2n1 is less than 40%
-1

Further cases:
Find out if reported Population Fragmented Nuclei (%) for COc1cc2ncn(-c3cc(OCc4ccccc4C(F)(F)F)c(C(N)=O)s3)c2cc1OC [GW843682X] is less than 40%
1

Find out if reported Population Fragmented Nuclei (%) for CC(C)OC(=O)N1CCC(Oc2ncnc3c2cnn3-c2ccc(S(C)(=O)=O)cc2F)CC1 is less than 40%
1

Find out if reported Population Fragmented Nuclei (%) for COC(=O)C1=C(C)NC(C)=C(C(=O)OCCCN2CCC(c3ccccc3)(c3ccccc3)CC2)[C@H]1c1cccc([N+](=O)[O-])c1 is less than 40%
-1

Find out if reported Population Fragmented Nuclei (%) for COc1ccccc1CN[C@H]1C2CCN(CC2)[C@H]1C(c1ccccc1)c1ccccc1 is less than 40%
1

Find out if reported Population Fragmented Nuclei (%) for O=C(c1cc2c(cc1F)OC(c1ccc(F)cc1)(c1ccc(Cl)cc1Cl)O2)N1CCOCC1 (configuration not stated) is less than 40%
1

Find out if reported Population Fragmented Nuclei (%) for CC1=C(C(=O)Nc2cc3cn[nH]c3cc2F)C(c2ccc(C(F)(F)F)cc2)CC(=O)N1 (configuration not stated) is less than 40%
1

Find out if reported Population Fragmented Nuclei (%) for CC(C)Oc1ccccc1C(=O)Nc1ccccc1C(=O)Nc1cccc(S(=O)(=O)C(F)(F)F)c1 is less than 40%
-1

Find out if reported Population Fragmented Nuclei (%) for CNC(=O)Nc1ccc(-c2nc(N3CC4CCC(C3)O4)c3cnn(C4CCC5(CC4)OCCO5)c3n2)cc1 is less than 40%
-1

###

# System: U2OS
# procedureDetails: Multiplex assay against U2OS
# Type: toxicity, cell-based
# experimentalContext: human, 24 h, 10 µM, compound concentration 10 uM, replicate 2
Returns YES if the recorded Population Apoptotic (%) is greater than or equal to 70%, and NO otherwise.

# example entries with known answers
Decide: is the reported value of Population Apoptotic (%) for CC(C)Oc1ccccc1C(=O)Nc1ccccc1C(=O)Nc1cccc(S(=O)(=O)C(F)(F)F)c1 equal to or greater than 70%?
YES

Decide: is the reported value of Population Apoptotic (%) for CC(C)NC(=O)N1CC[C@H](NC2=Nc3cc(F)ccc3N(CC(F)F)c3ccc(Cl)cc32)C1 equal to or greater than 70%?
YES

Decide: is the reported value of Population Apoptotic (%) for C=CC(=O)Nc1cccc(Oc2nc(Nc3ccc(N4CCN(C)CC4)cc3OC)ncc2Cl)c1 equal to or greater than 70%?
NO

Decide: is the reported value of Population Apoptotic (%) for O=c1cc(N2CCOCC2)oc2c(-c3cccc4c3sc3ccccc34)cccc12 equal to or greater than 70%?
NO

Decide: is the reported value of Population Apoptotic (%) for CC(C)OC(=O)N1CCC(Oc2ncnc3c2cnn3-c2ccc(S(C)(=O)=O)cc2F)CC1 equal to or greater than 70%?
NO

Further cases:
Decide: is the reported value of Population Apoptotic (%) for Cc1ccc2c(c1)c1c(n2CCc2ccc(C)nc2)CCN(C)C1 [LATREPIRDINE] equal to or greater than 70%?
YES

Decide: is the reported value of Population Apoptotic (%) for O=c1[nH]c2ccccc2n1C1CCN(Cc2ccc(-c3[nH]c4cc5ncnc5cc4nc3-c3ccccc3)cc2)CC1 equal to or greater than 70%?
YES

###

# Test system: HEK-293T
# procedureDetails: Multiplex assay against HEK293T
# Format: toxicity, cell-based
# experimentalContext: human, 24 h, 1 µM, compound concentration 1 uM, replicate 1
measuredProperty: Population Fragmented Nuclei (%)
The reply should contain only the number, in %.

// solved cases for Population Fragmented Nuclei (%) follow
Sure, the documented Population Fragmented Nuclei (%) for CC(C)OC(=O)N1CCC(Oc2ncnc3c2cnn3-c2ccc(S(C)(=O)=O)cc2F)CC1 is 11

Sure, the documented Population Fragmented Nuclei (%) for COc1ccccc1CN[C@H]1C2CCN(CC2)[C@H]1C(c1ccccc1)c1ccccc1 [CP-96345] is 11

Sure, the documented Population Fragmented Nuclei (%) for CC(C)c1noc(N2CCC(COc3ccc(-c4ccc(S(C)(=O)=O)cc4)nc3)CC2)n1 [GSK-1292263] is 15

Now for another entry.
Sure, the documented Population Fragmented Nuclei (%) for COc1cc(Nc2nccc(-c3cnn4nc(OC)ccc34)n2)cc(C(F)(F)F)c1 is 16

###

# System: Fibroblast
# procedureDetails: Multiplex assay against human fibroblast
# Assay type: toxicity, cell-based
# experimentalContext: 24 h, 10 µM, compound concentration 10 uM, replicate 1
measuredProperty: Population Mitochondria Different-Phenotype (%)

// solved cases for Population Mitochondria Different-Phenotype (%) follow
Sure, the documented Population Mitochondria Different-Phenotype (%) for CC(C)CC(=O)Nc1[nH]nc2c1CN(C(=O)C1CCN(C)CC1)C2(C)C [PHA-793887] is 6%

Sure, the documented Population Mitochondria Different-Phenotype (%) for COc1cc(Nc2nccc(-c3cnn4nc(OC)ccc34)n2)cc(C(F)(F)F)c1 is 11%

Sure, the documented Population Mitochondria Different-Phenotype (%) for CN1CCN(Cc2ccc(Nc3ncc(Cl)c(Nc4ccccc4S(=O)(=O)N(C)C)n3)cc2)CC1 [DUBERMATINIB] is 16%

Sure, the documented Population Mitochondria Different-Phenotype (%) for CC1=C(C(=O)Nc2cc3cn[nH]c3cc2F)C(c2ccc(C(F)(F)F)cc2)CC(=O)N1 (centres undefined) is 8%

Sure, the documented Population Mitochondria Different-Phenotype (%) for C=CC(=O)Nc1ccc2[nH]c(=O)n(C3CCN(Cc4ccc(-c5nc6cc[nH]c(=O)c6cc5-c5ccccc5)cc4)CC3)c2c1 [Borussertib] is 2%

Further cases:
Sure, the documented Population Mitochondria Different-Phenotype (%) for COc1ccc(-c2ccc3ncc4c(c3c2)n(-c2ccc(N3CCNCC3)c(C(F)(F)F)c2)c(=O)n4C)cn1.O=C(O)/C=C\C(=O)O [BGT-226] is 0%

Sure, the documented Population Mitochondria Different-Phenotype (%) for Cc1ccc2c(c1)c1c(n2CCc2ccc(C)nc2)CCN(C)C1 [LATREPIRDINE] is 37%

Sure, the documented Population Mitochondria Different-Phenotype (%) for CC(C)Oc1ccccc1C(=O)Nc1ccccc1C(=O)Nc1cccc(S(=O)(=O)C(F)(F)F)c1 is 71%

Sure, the documented Population Mitochondria Different-Phenotype (%) for C[C@]12CC[C@@H]3c4ccc(O)cc4CC[C@H]3[C@@H]1CC[C@@H]2O [ESTRADIOL] is 9%
